- Tested on: carbachol-induced airway contraction
- Assay info: Test of rat airway contraction (carbachol-induced rise in airway pressure)
- Type: in vivo
- Experimental conditions: evaluation after 24 hours from administration into the trachea of 0.5 μg/kg of a drug
Consider the following compounds; for each one, report its Inhibition rate, carbachol-induced airway contraction inhibitory action.
Numeric answer plus unit only.

(Q) Quick one: Inhibition rate, carbachol-induced airway contraction inhibitory action of C[N+]12CCCC(OC(=O)Nc3ncsc3-c3ccccc3)(CC1)CC2.[I-] [Example 65] ?
(A) 61%

(Q) Please answer likewise for O=C(Nc1ncsc1-c1cccc(Cl)c1)OC12CC[N+](CCOc3ccccc3)(CC1)CC2.[Br-] [Example 66]
(A) 80%

(Q) Subsequent entry: O=C(Nc1ncsc1-c1ccccc1)OC12CC[N+](CCOc3ccccc3)(CC1)CC2 [Example 46]
(A) 90%

Cited source for all entries: patent US8367696B2
